EXPERIMENTAL SETUP: fish
Strictly below -0.6 in log10 biotransformation half-life (days): Fulfilled. Otherwise: Not fulfilled.

See these solved cases before continuing.
[
  {
    "SMILES RECORD": "Nc1ccc(Cl)c(Cl)c1Cl",
    "ASSIGNED LABEL": "Not fulfilled"
  },
  {
    "SMILES RECORD": "CCCCCl",
    "ASSIGNED LABEL": "Not fulfilled"
  },
  {
    "SMILES RECORD": "c1ccc2c(c1)c1ccccc1c1ccccc21",
    "ASSIGNED LABEL": "Not fulfilled"
  },
  {
    "SMILES RECORD": "ClC=C(Cl)Cl",
    "ASSIGNED LABEL": "Not fulfilled"
  }
]

Q: Hello, I'm reviewing records and need to know if log10 biotransformation half-life (days) of c1ccc2cc3c(ccc4ccccc43)cc2c1 is below -0.6. Could you check?
A: Not fulfilled

Q: Hello, I'm reviewing records and need to know if log10 biotransformation half-life (days) of Clc1ccccn1 is below -0.6. Could you check?
A: Fulfilled

Q: Hello, I'm reviewing records and need to know if log10 biotransformation half-life (days) of Cc1ccc2ccc3cccc4ccc1c2c34 is below -0.6. Could you check?
A: Not fulfilled

Q: Hello, I'm reviewing records and need to know if log10 biotransformation half-life (days) of ClCCOCCCl is below -0.6. Could you check?
A: Fulfilled
